- Test: Inhibition of DENV2 TSV01 NS2B-NS3 protease using BOC-GRR-AMC as substrate incubated for 30 mins by spectrofluorometeric assay
- Design: species or system dengue virus type 2
Value type: Ki
Returns: string containing the number followed by the unit.

In: Query (compound): `O=C1c2c(O)ccc([N+](=O)[O-])c2C(=O)c2c([N+](=O)[O-])ccc(O)c21` ; field requested: Ki
Out: 432 µM

* * *

- Test: Inhibition of DENV2 N-terminally hexa-His tagged NS2B (48 to 95 residues) -NS3 (1 to 184 residues) protease expressed in Escherichia coli XL1 Blue using QXL570-Phe-Ala-Ser-Gly-Lys-Arg-Ser-Gln-Ile-Gly-Leu-Lys(5-TAMRA)-NH2 as substrate and measured for 15 mins by FRET assay
- Parameters: species or system dengue virus type 2
Value type: IC50
Returns: string containing the number followed by the unit.

N=C(N)Nc1ccc(O[C@H]2C[C@@H](O)[C@H](NC(=N)N)C[C@@H]2NC(=N)N)c(NC(=N)N)c1 :: 15 µM

In: Query (compound): `N=C(N)Nc1ccc(O[C@H]2C[C@H](F)[C@H](NC(=N)N)C[C@@H]2NC(=N)N)c(NC(=N)N)c1` ; field requested: IC50
Out: 20.5 µM

In: Query (compound): `N=C(N)Nc1ccc(NC(=O)O[C@H]2C[C@@H](OC(=O)Nc3ccc(NC(=N)N)cc3)[C@H](NC(=N)N)C[C@@H]2NC(=N)N)cc1` ; field requested: IC50
Out: 17 µM

In: Query (compound): `N=C(N)Nc1ccc(N[C@H]2C[C@@H](NC(=N)N)[C@H](Oc3ccc(NC(=N)N)cc3)C[C@@H]2Oc2ccc(NC(=N)N)cc2)cc1` ; field requested: IC50
Out: 10 µM

In: Query (compound): `N=C(N)Nc1ccccc1O[C@H]1C[C@@H](Oc2ccccc2NC(=N)N)[C@H](NC(=N)N)C[C@@H]1NC(=N)N` ; field requested: IC50
Out: 32 µM

In: Query (compound): `N=C(N)Nc1ccc(O[C@H]2C[C@@H](Oc3ccc(NC(=N)N)cc3NC(=N)N)[C@H](NC(=N)N)C[C@@H]2NC(=N)N)c(NC(=N)N)c1` ; field requested: IC50
Out: 5 µM

In: Query (compound): `N=C(N)Nc1ccc(O[C@H]2C[C@@H](Oc3ccc(NC(=N)N)cc3)[C@H](NC(=N)N)C[C@@H]2NC(=N)N)cc1` ; field requested: IC50
Out: 10.9 µM

In: Query (compound): `N=C(N)Nc1cc(NC(=N)N)c2ccccc2c1O[C@H]1C[C@@H](O)[C@H](NC(=N)N)C[C@@H]1NC(=N)N` ; field requested: IC50
Out: 6 µM

In: Query (compound): `Cc1cc(NC(=O)O[C@@H]2C[C@H](Oc3ccc(NC(=N)N)cc3N=C(N)N)[C@@H](N=C(N)N)C[C@H]2N=C(N)N)ccc1F` ; field requested: IC50
Out: 7 µM

* * *

- Test: Inhibition of DENV2 recombinant NS2B-NS3 protease expressed in Escherichia coli using Abz-RRRRSAG-nY-NH2 as substrate preincubated for 20 mins at 37 degC followed by substrate addition measured after 60 mins by fluorescence spectrophotometric analysis
- Parameters: species or system dengue virus type 2
Residues, ends and D or L forms follow the SMILES beside them.
Value type: Ki (µM)
Give the value in µM but do not write µM after it.

In: Query (compound): NC(=O)[C@H](Cc1c[nH]c2ccccc12)NC(=O)[C@H](CS)NC(=O)[C@H](Cc1ccc(O)cc1)NC(=O)[C@@H](N)Cc1c[nH]c2ccccc12 (H-WYCW-NH2) ; field requested: Ki
Out: 4.8

* * *

- Test: Inhibition of DENV1 N-terminally hexa-His tagged NS2B (48 to 95 residues) -NS3 (1 to 184 residues) protease expressed in Escherichia coli XL1 Blue using QXL570-Phe-Ala-Ser-Gly-Lys-Arg-Ser-Gln-Ile-Gly-Leu-Lys(5-TAMRA)-NH2 as substrate and measured for 15 mins by FRET assay
- Parameters: species or system dengue virus type 1
Note to self: IC50 under 9 µM means true, ties and anything higher get false.

Take a look at these entries with their results.
N=C(N)Nc1ccc(NC(=O)O[C@H]2C[C@@H](OC(=O)Nc3ccc(NC(=N)N)cc3)[C@H](NC(=N)N)C[C@@H]2NC(=N)N)cc1 :: false
N=C(N)Nc1ccc(O[C@H]2C[C@@H](O)[C@H](NC(=N)N)C[C@@H]2NC(=N)N)c(NC(=N)N)c1 :: false
N=C(N)Nc1ccc(O[C@H]2C[C@@H](Oc3ccc(NC(=N)N)cc3)[C@H](NC(=N)N)C[C@@H]2NC(=N)N)cc1 :: true

We next turn to a different molecule, shown below.
In: Decide: IC50 of `N=C(N)Nc1cc(NC(=N)N)c2ccccc2c1O[C@H]1C[C@@H](O)[C@H](NC(=N)N)C[C@@H]1NC(=N)N` strictly below 9 µM?
Out: true

* * *

- Test: Inhibition of DENV2 recombinant CF40-glycine fused NS2B-NS3 protease expressed in Escherichia coli SG13009 using Ac-TTSTRR-pNA as substrate preincubated for 50 mins followed by substrate addition by spectrophotometric assay
- Design: species or system dengue virus type 2
Starred links: 1 amine or outer side, 2 acyl side, 3 side chain; linkers in the order of their positions; H or OH if unused. Non-standard residues stand in square brackets, D forms with d. Residues, ends and D or L forms follow the SMILES beside them. Arg(ψCOCO) = N=C(N)NCCC[C@H](N[*:1])C(=O)C(=O)[*:2]
Below, each entry is listed alongside its reported pKi.
// field semantics: pKi = negative decimal log of concentration (mol/L)

CC(=O)N[C@@H](Cc1ccccc1)C(=O)N[C@@H](C)C(=O)N[C@@H](C)C(=O)NCC(=O)N[C@@H](CCCNC(=N)N)C(=O)N[C@H](C=O)CCCNC(=N)N (Ac-FAAGRR-aldehyde) :: 4.80
CC(=O)N[C@H](C(=O)N[C@H](C(=O)N[C@@H](CO)C(=O)N[C@H](C(=O)N[C@@H](CCCNC(=N)N)C(=O)N[C@@H](CCCNC(=N)N)C(=O)C(=O)N[C@@H](CO)C(=O)N[C@@H](CC(C)C)C(N)=O)[C@@H](C)O)[C@@H](C)O)[C@@H](C)O (Ac-TTSTR[Arg(ψCOCO)]SL-NH2) :: 3.66
CC(=O)N[C@@H](Cc1ccccc1)C(=O)N[C@@H](C)C(=O)N[C@@H](C)C(=O)NCC(=O)N[C@@H](CCCNC(=N)N)C(=O)N[C@@H](CCCNC(=N)N)C(=O)C(=O)N[C@@H](CO)C(=O)N[C@@H](CC(C)C)C(N)=O (Ac-FAAGR[Arg(ψCOCO)]SL-NH2) :: 4.33

In: Query (molecule): CC(=O)N[C@H](C(=O)N[C@H](C(=O)N[C@@H](CO)C(=O)N[C@H](C(=O)N[C@@H](CCCNC(=N)N)C(=O)N[C@@H](CCCNC(=N)N)C(=O)C(=O)NCC(=O)N[C@H](C(=O)NCC(=O)N[C@@H](CC(N)=O)C(N)=O)[C@@H](C)O)[C@@H](C)O)[C@@H](C)O)[C@@H](C)O (Ac-TTSTR[Arg(ψCOCO)]GTGN-NH2) ; field requested: pKi
Out: 3.43

* * *

- Test: Inhibition of DENV1 N-terminally hexa-His tagged NS2B (48 to 95 residues) -NS3 (1 to 184 residues) protease expressed in Escherichia coli XL1 Blue using QXL570-Phe-Ala-Ser-Gly-Lys-Arg-Ser-Gln-Ile-Gly-Leu-Lys(5-TAMRA)-NH2 as substrate and measured for 15 mins by FRET assay
- Parameters: species or system dengue virus type 1
Below, each entry is listed alongside its reported pIC50.
// field semantics: pIC50 = negative decimal log of concentration (mol/L)

Answered examples (3):
N=C(N)Nc1ccc(O[C@H]2C[C@@H](Oc3ccc(NC(=N)N)cc3NC(=N)N)[C@H](NC(=N)N)C[C@@H]2NC(=N)N)c(NC(=N)N)c1 :: 5.52
N=C(N)Nc1ccc(O[C@H]2C[C@H](F)[C@H](NC(=N)N)C[C@@H]2NC(=N)N)c(NC(=N)N)c1 :: 5.06
Cc1cc(NC(=O)O[C@@H]2C[C@H](Oc3ccc(NC(=N)N)cc3N=C(N)N)[C@@H](N=C(N)N)C[C@H]2N=C(N)N)ccc1F :: 5.59

Proceeding to the next molecule to report its pIC50.
In: Query (molecule): `N=C(N)Nc1ccc(N[C@H]2C[C@@H](NC(=N)N)[C@H](Oc3ccc(NC(=N)N)cc3)C[C@@H]2Oc2ccc(NC(=N)N)cc2)cc1` ; field requested: pIC50
Out: 5.28

* * *

- Test: Inhibition of DENV2 recombinant NS2B-NS3 protease expressed in Escherichia coli C41 using GRR-AMC as substrate incubated for 15 mins by Lineweaver-Burk plot analysis
- Design: species or system dengue virus type 2
Residues, ends and D or L forms follow the SMILES beside them.
Below, each entry is listed alongside its reported log10 Ki.
Give log10 of Ki, with Ki taken in µM.

Answered examples (3):
CC(=O)N[C@@H](CCCCN)C(=O)N[C@@H](CCCNC(=N)N)C(N)=O (Ac-Lys-Arg-NH2) :: 2.09
CC(=O)N[C@@H](CCC(=O)O)C(=O)N[C@H](C(=O)N[C@@H](CCCCN)C(=O)N[C@@H](CCCCN)C(=O)N[C@@H](CCC(N)=O)C(=O)N[C@@H](CCCNC(=N)N)C(N)=O)C(C)C (Ac-EVKKQR-NH2) :: 1.82
CC(=O)N[C@H](C(=O)N[C@H](C(=O)N[C@@H](CO)C(=O)N[C@H](C(=O)N[C@@H](CCCNC(=N)N)C(=O)N[C@@H](CCCNC(=N)N)C(N)=O)[C@@H](C)O)[C@@H](C)O)[C@@H](C)O (Ac-TTSTRR-NH2) :: 1.66

In: Query (compound): CC(=O)N[C@@H](CCCCN)C(=O)N[C@@H](CCCCN)C(=O)N[C@@H](CCCNC(=N)N)C(N)=O (Ac-Lys-Lys-Arg-NH2) ; field requested: log10 Ki
Out: 1.35

In: Query (compound): CC(=O)N[C@@H](CO)C(=O)N[C@@H](CCCCN)C(=O)N[C@@H](CCCCN)C(=O)N[C@@H](CCCNC(=N)N)C(N)=O (Ac-SKKR-NH2) ; field requested: log10 Ki
Out: 2.27
